specificity reference
- Tested on: USP auxiliary domains and full-length CYLD and USP7 (baits)
- assay details: ProP-PD selections against the HD2 library
- Type: binding, human
- run conditions: bait CYLD_CAP-Gly-2 (Q9NQC7 235-307); ProP-PD peptide level
Just the number, please.

Below, each entry is followed by its recorded specificity result.
**Q:** Report specificity for `VAEMVALVEQRAALAL` tested on USP auxiliary domains and full-length CYLD and USP7 (baits).
**A:** 0.48

**Q:** Report specificity for `TWWDRYEEFVGLNEVR` tested on USP auxiliary domains and full-length CYLD and USP7 (baits).
**A:** 0.28

**Q:** Report specificity for `SQQDAQEFLRALMDLL` tested on USP auxiliary domains and full-length CYLD and USP7 (baits).
**A:** 0.87

---
**Q:** Report specificity for DLLSVAEMVALVEQRA [FBXO46_168-183] tested on USP auxiliary domains and full-length CYLD and USP7 (baits).
**A:** 1.00
